experiment: Antiproliferative activity against rat OSRGA cells assessed as inhibition of cell viability after 72 hrs by XTT assay; format: functional, cell-based
REPORTED ENDPOINT: IC50 (nM)
Enter your answer as a number in nM; do not include the unit.

Ask: What does the record list as IC50 for COc1cccc2c1C(=O)c1c(O)c3c(c(O)c1C2=O)C[C@@](O)(C(=O)CO)C[C@@H]3O[C@H]1C[C@H](N)[C@H](O)[C@H](C)O1 ?
Reply: 93
